testedSystem: nuclear receptor 4A1 (NR4A1, Nur77) (Homo sapiens, UniProt P22736)
Sequence (P22736 351-598 limits assumed): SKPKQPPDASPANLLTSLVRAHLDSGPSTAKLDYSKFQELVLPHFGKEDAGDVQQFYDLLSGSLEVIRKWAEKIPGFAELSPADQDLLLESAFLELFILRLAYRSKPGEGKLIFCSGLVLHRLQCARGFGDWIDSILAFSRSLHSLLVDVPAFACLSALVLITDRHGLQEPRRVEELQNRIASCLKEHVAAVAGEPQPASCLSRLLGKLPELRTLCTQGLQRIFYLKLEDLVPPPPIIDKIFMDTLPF
readoutType: Kd (nM)

| compound | testedSystem | reading |
| --- | --- | --- |
| O=c1c(O)c(-c2ccc(O)c(O)c2)oc2cc(O)cc(O)c12 [Q, quercetin] | nuclear receptor 4A1 (NR4A1, Nur77) (Homo sapiens, UniProt P22736) | 930 |
